- System: 922993-354-T-J3-PDC complex spheroids, viability
- test summary: Anticancer human tumor 922993-354-T-J3-PDC patient-derived endometrial carcinoma cell line growth inhibition [GQUAD]
- experimental setup: second compound 0.0316 µM; first compound 0.316 µM; stronger effect = lower value
Please go through the items and note down their viability, T/C.
Give bare numbers, in %.

Consider the following illustrative entries.
molecule	unit text	viability, T/C
C#Cc1c(F)ccc2cc(O)cc(-c3ncc4c(N5CC6CCC(C5)N6)nc(OCC56CCCN5CC(F)C6)nc4c3F)c12 (stereo not given) + Cc1cnc(CNC(=O)c2c(=O)c3ccc(N4CCCN(C)CC4)nc3n3c2sc2ccccc23)cn1	%	74.4
COc1ncnc(C2CC2)c1-c1ncc2cnn(Cc3ccc(-c4nc(C(F)(F)F)cn4C(C)C)cc3)c2n1 + CN(C)c1ccc(Nc2c3ccc(NC(=O)CCN4CCCC4)cc3nc3cc(NC(=O)CCN4CCCC4)ccc23)cc1	%	84
COc1cccc2c1C(=O)c1c(O)c3c(c(O)c1C2=O)CC(O)(C(=O)CO)CC3OC1CC(N)C(O)C(C)O1 (stereo not given) + Cc1[nH]c2ccc(F)cc2c1-c1nc2c3cccnc3c3ncccc3c2[nH]1	%	99.5
O=C(c1cc(Cc2n[nH]c(=O)c3ccccc23)ccc1F)N1CCN(C(=O)C2CC2)CC1 + Cc1cnc(CNC(=O)c2c(=O)c3ccc(N4CCCN(C)CC4)nc3n3c2sc2ccccc23)cn1	%	90.8

As a next step, examine the molecule that follows.
Record Cc1cccc(N(C)C(=O)C2C(O)CCN2c2nc(C)cc(C(F)(F)F)c2C#N)c1 (stereo not given) + Cc1[nH]c2ccc(F)cc2c1-c1nc2c3cccnc3c3ncccc3c2[nH]1 . Reported viability, T/C: 80.8

* * *

- Tested on: 922993-354-T-J3-PDC complex spheroids, viability
- test summary: Anticancer human tumor 922993-354-T-J3-PDC cell line growth inhibition [GQUAD];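 note: spheroids exposed to compounds for seven days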;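 for viability, T/C: 100% = DMSO vehicle control viability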
- experimental setup: second compound 0.0316 µM; first compound 0.1 µM; stronger effect = lower value
Threshold 80%. viability, T/C below it: Criterion met. viability, T/C at it or above: Criterion not met.

Recorded results for 3 molecules are shown here.
molecule	assayed target	assigned class
COc1cc(C2c3cc4c(cc3C(OC3OC5COC(C)OC5C(O)C3O)C3COC(=O)C23)OCO4)cc(OC)c1O (stereo not given) + Cc1cnc(CNC(=O)c2c(=O)c3ccc(N4CCCN(C)CC4)nc3n3c2sc2ccccc23)cn1	922993-354-T-J3-PDC complex spheroids, viability	Criterion met
CCCS(=O)(=O)Nc1ccc(F)c(C(=O)c2c[nH]c3ncc(-c4ccc(Cl)cc4)cc23)c1F + Cc1[nH]c2ccc(F)cc2c1-c1nc2c3cccnc3c3ncccc3c2[nH]1	922993-354-T-J3-PDC complex spheroids, viability	Criterion not met
CC1COCCN1c1cc(C2(S(C)(=N)=O)CC2)nc(-c2ccnc3[nH]ccc23)n1 (stereo not given) + Cc1[nH]c2ccc(F)cc2c1-c1nc2c3cccnc3c3ncccc3c2[nH]1	922993-354-T-J3-PDC complex spheroids, viability	Criterion not met

Then this molecule:
Dear reviewer, please state whether CC1COCCN1c1cc(-c2ccnn2C)c2ccnc(-c3ccn[nH]3)c2n1 (stereo not given) + Cc1cnc(CNC(=O)c2c(=O)c3ccc(N4CCCN(C)CC4)nc3n3c2sc2ccccc23)cn1 has viability, T/C strictly beneath 80%.
Criterion met

* * *

Kindly state pIC50 for each of the entries shown.
- Test system: 922993-354-T-J3-PDC complex spheroids, viability
- test summary: Anticancer human tumor 922993-354-T-J3-PDC cell line growth inhibition [GQUAD];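 note: spheroids exposed to compounds for seven days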
- experimental setup: curve of first compound; second compound 0.1 µM
- Source text: DNA G-quadruplex Stabilizer Agents in Combinations in Complex Spheroids A high-throughput screen of multi-cell type tumor spheroids was designed to identify active combinations of DNA G-quadruplex stabilizer agents and targeted small molecules. […] Compounds. […] If the clinical Cmax for an agent had not been determined, the highest concentration tested was 10 microM. […]
pIC50: −log10 of the molar value.

molecule	pIC50
O=C(c1cc(Cc2n[nH]c(=O)c3ccccc23)ccc1F)N1CCN(C(=O)C2CC2)CC1 + Cc1cnc(CNC(=O)c2c(=O)c3ccc(N4CCCN(C)CC4)nc3n3c2sc2ccccc23)cn1	< 5.00

Below is a list of molecules. For each, state its recorded pIC50.
1. COc1cccc2c1C(=O)c1c(O)c3c(c(O)c1C2=O)CC(O)(C(=O)CO)CC3OC1CC(N)C(O)C(C)O1 (stereo not given) + Cc1[nH]c2ccc(F)cc2c1-c1nc2c3cccnc3c3ncccc3c2[nH]1
2. C#Cc1c(F)ccc2cc(O)cc(-c3ncc4c(N5CC6CCC(C5)N6)nc(OCC56CCCN5CC(F)C6)nc4c3F)c12 (stereo not given) + Cc1cnc(CNC(=O)c2c(=O)c3ccc(N4CCCN(C)CC4)nc3n3c2sc2ccccc23)cn1
3. CC(C)(O)C1CCC(Nc2ccc3ncc(-c4cccc(C(F)(F)F)c4)n3n2)CC1 (stereo not given) + Cc1cnc(CNC(=O)c2c(=O)c3ccc(N4CCCN(C)CC4)nc3n3c2sc2ccccc23)cn1
4. Nc1ccn(C2OC(CO)C(O)C2(F)F)c(=O)n1 (stereo not given) + Cc1[nH]c2ccc(F)cc2c1-c1nc2c3cccnc3c3ncccc3c2[nH]1

1: < 5.00; 2: < 5.00; 3: < 5.00; 4: > 7.50

* * *

- System: 922993-354-T-J3-PDC complex spheroids, viability
- test summary: Anticancer human tumor 922993-354-T-J3-PDC cell line growth inhibition [GQUAD]; active = viability on the fitted dose curve at most 10% of control; inactive = the rest;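 note: spheroids exposed to compounds for seven days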
- experimental setup: second compound 0.1 µM; first compound 10 µM
Thanks in advance; please answer with one of these: active, inactive

Sample answers from the record:
compound	assigned class
CC(=O)O[C@H]1C(=O)[C@@]2(C)[C@H]([C@H](OC(=O)c3ccccc3)[C@]3(O)C[C@H](OC(=O)[C@H](O)[C@@H](NC(=O)c4ccccc4)c4ccccc4)C(C)=C1C3(C)C)[C@]1(OC(C)=O)CO[C@@H]1C[C@@H]2O + CN(C)c1ccc(Nc2c3ccc(NC(=O)CCN4CCCC4)cc3nc3cc(NC(=O)CCN4CCCC4)ccc23)cc1	inactive
C=CCn1c(=O)c2cnc(Nc3ccc(N4CCN(C)CC4)cc3)nc2n1-c1cccc(C(C)(C)O)n1 + Cc1cnc(CNC(=O)c2c(=O)c3ccc(N4CCCN(C)CC4)nc3n3c2sc2ccccc23)cn1	inactive
Cc1cccc(N(C)C(=O)C2C(O)CCN2c2nc(C)cc(C(F)(F)F)c2C#N)c1 (stereo unspecified) + Cc1[nH]c2ccc(F)cc2c1-c1nc2c3cccnc3c3ncccc3c2[nH]1	inactive
CC1COCCN1c1cc(C2(S(C)(=N)=O)CC2)nc(-c2ccnc3[nH]ccc23)n1 (stereo unspecified) + Cc1[nH]c2ccc(F)cc2c1-c1nc2c3cccnc3c3ncccc3c2[nH]1	inactive
C=CC(=O)N1CCN(c2nc(=O)n(-c3c(C)ccnc3C(C)C)c3nc(-c4c(O)cccc4F)c(F)cc23)C(C)C1 (stereo unspecified) + Cc1cnc(CNC(=O)c2c(=O)c3ccc(N4CCCN(C)CC4)nc3n3c2sc2ccccc23)cn1	inactive
O=c1[nH]cc(F)c(=O)[nH]1 + Cc1[nH]c2ccc(F)cc2c1-c1nc2c3cccnc3c3ncccc3c2[nH]1	inactive

Okay, now this compound:
Would you mind telling me which call this test gave O=C(c1cc(Cc2n[nH]c(=O)c3ccccc23)ccc1F)N1CCN(C(=O)C2CC2)CC1 + CN(C)c1ccc(Nc2c3ccc(NC(=O)CCN4CCCC4)cc3nc3cc(NC(=O)CCN4CCCC4)ccc23)cc1 ?
inactive

* * *

- System: 922993-354-T-J3-PDC complex spheroids, viability
- test summary: Anticancer human tumor 922993-354-T-J3-PDC cell line growth inhibition [GQUAD]; active = viability on the fitted dose curve at most 10% of control; inactive = the rest;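 note: spheroids exposed to compounds for seven days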
- experimental setup: second compound 1 µM; first compound 10 µM
Select the matching outcome among y for active, n for inactive

compound	assigned class
CC1COCCN1c1cc(-c2ccnn2C)c2ccnc(-c3ccn[nH]3)c2n1 (stereo not given) + CN(C)c1ccc(Nc2c3ccc(NC(=O)CCN4CCCC4)cc3nc3cc(NC(=O)CCN4CCCC4)ccc23)cc1	n
CC1COCCN1c1cc(C2(O)CC3CCC(C2)O3)c2cnn(-c3ccn[nH]3)c2n1 (stereo not given) + Cc1cnc(CNC(=O)c2c(=O)c3ccc(N4CCCN(C)CC4)nc3n3c2sc2ccccc23)cn1	y
O=C(c1cc(Cc2n[nH]c(=O)c3ccccc23)ccc1F)N1CCN(C(=O)C2CC2)CC1 + Cc1cnc(CNC(=O)c2c(=O)c3ccc(N4CCCN(C)CC4)nc3n3c2sc2ccccc23)cn1	n
COc1cc(C2c3cc4c(cc3C(OC3OC5COC(C)OC5C(O)C3O)C3COC(=O)C23)OCO4)cc(OC)c1O (stereo not given) + CN(C)c1ccc(Nc2c3ccc(NC(=O)CCN4CCCC4)cc3nc3cc(NC(=O)CCN4CCCC4)ccc23)cc1	n

What outcome does the record of this test show for CC(C)n1c(=O)n(C)c2cnc3cc(F)c(-c4ccc(OCCCN5CCCCC5)nc4)cc3c21 + CN(C)c1ccc(Nc2c3ccc(NC(=O)CCN4CCCC4)cc3nc3cc(NC(=O)CCN4CCCC4)ccc23)cc1 ?
n
